Here, each record is paired with measured IC50 of in vitro cell killing on MC38-hClaudin18.2 cells (AlamarBlue cell viability) data.
Target Entity: T1, human Claudin18.2 (human, UniProt P56856 1-261)
T1 sequence (looked up): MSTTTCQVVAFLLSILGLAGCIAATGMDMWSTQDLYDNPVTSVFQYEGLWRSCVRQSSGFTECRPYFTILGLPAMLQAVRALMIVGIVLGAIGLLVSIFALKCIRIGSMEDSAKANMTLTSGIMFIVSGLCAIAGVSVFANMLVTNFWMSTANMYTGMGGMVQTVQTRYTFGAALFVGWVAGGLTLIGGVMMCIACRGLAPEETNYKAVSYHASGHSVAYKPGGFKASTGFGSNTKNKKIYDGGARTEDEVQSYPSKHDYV
Measurement Description: cell-based or functional assay
Reported Property: IC50 of in vitro cell killing on MC38-hClaudin18.2 cells (AlamarBlue cell viability) (nM)

9D1-GGFG-Exatecan (antibody, human IgG1, kappa, V domains shown, MC-GGFG-Exatecan linker-drug on reduced interchain cysteines (Conjugation Method 1, DAR 8)) VH: QIQLVQSGAEVKKPGASVKISCKASGYSFTDYHMNWVRQAPGKGLEWIGNIDPYYGSPTYNHKFKGRVTLTVDTSTSTAYMELSSLRSEDTAVYYCANYGRGNSFPYWGQGTLVTVSS VL: DIVMTQSPSSLAVSLGERATINCKSSQSLLNSGNQRNYLTWYQQKPGQPPKLLIYWASTRESGVPDRFSGSGSGTDFTLTISSLQAEDVAVYYCQNDYSFPFTFGQGTKLEIKR; 11
9D1-LD-31-P1 (antibody, human IgG1, kappa, V domains shown, LD-31-P1 linker-drug (Exatecan) on reduced interchain cysteines (Conjugation Method 1, DAR 8)) VH: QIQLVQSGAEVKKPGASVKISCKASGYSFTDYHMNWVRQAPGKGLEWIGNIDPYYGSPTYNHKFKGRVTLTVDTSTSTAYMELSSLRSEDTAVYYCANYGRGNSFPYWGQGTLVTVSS VL: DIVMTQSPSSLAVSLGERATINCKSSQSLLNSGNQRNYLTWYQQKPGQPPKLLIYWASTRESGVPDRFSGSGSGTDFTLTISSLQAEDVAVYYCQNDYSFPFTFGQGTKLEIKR; 4.35
9D1-LD-65 (antibody, human IgG1, kappa, V domains shown, LD-65 linker-drug (Exatecan) on reduced interchain cysteines (Conjugation Method 1, DAR 8)) VH: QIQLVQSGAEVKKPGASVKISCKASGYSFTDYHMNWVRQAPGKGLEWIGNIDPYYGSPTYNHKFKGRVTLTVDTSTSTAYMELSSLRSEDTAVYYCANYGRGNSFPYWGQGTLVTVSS VL: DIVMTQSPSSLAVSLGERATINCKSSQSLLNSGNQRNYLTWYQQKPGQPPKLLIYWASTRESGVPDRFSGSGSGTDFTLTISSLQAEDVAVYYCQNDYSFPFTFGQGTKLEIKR; 1.61
9D1-LD-38 (antibody, human IgG1, kappa, V domains shown, LD-38 linker-drug (Exatecan) on reduced interchain cysteine; main conjugation form one LD-38 molecule per light chain; LD-38 linker-drug (Exatecan) on reduced interchain cysteines; main conjugation form three LD-38 molecules per heavy chain (DAR 8 nominal, 7.8 measured)) VH: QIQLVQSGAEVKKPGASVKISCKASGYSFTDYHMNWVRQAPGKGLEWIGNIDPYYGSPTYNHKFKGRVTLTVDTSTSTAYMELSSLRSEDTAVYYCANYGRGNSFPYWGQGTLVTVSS VL: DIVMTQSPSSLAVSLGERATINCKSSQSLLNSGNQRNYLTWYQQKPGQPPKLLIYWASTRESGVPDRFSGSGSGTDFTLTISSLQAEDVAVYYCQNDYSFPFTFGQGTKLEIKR; 1.36
